# Target or test system: Bacillus subtilis AJ1307-derived TG (TG-1) (Bacillus subtilis, UniProt P40746, D22N)
# Construct: The thus-obtained cells were used as the starting material, from which TG was purified in the manner mentioned below; endogenous in cells; host or cells: Bacillus subtilis AJ1307 (enzyme solubilized from spores and purified to a single band)
# Sequence (P40746 whole entry D22N): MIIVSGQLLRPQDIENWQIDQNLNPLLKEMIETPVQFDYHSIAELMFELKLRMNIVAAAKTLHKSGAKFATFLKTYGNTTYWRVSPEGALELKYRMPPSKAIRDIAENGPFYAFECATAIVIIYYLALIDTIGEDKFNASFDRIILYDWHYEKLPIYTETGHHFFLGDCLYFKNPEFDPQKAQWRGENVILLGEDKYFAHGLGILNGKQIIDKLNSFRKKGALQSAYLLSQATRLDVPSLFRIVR
# Type: biochemical
# Experimental setup: TG-1, summary of Table 1
Measured property: Influence of reagent on TG activity (in words)

Below, each entry is followed by its recorded Influence of reagent on TG activity (in words) result.
>  <Compound>
O[C@H](CS)[C@H](O)CS (racemic)

>  <Result>
not inhibited

$$$$
>  <Compound>
O=C(O)CN(CCN(CC(=O)O)CC(=O)O)CC(=O)O

>  <Result>
not inhibited

$$$$
>  <Compound>
OCCS

>  <Result>
not inhibited

$$$$
>  <Compound>
CCN1C(=O)C=CC1=O [NEM, N-ethylmaleimide]

>  <Result>
inhibited

$$$$

Query: Quick one: Influence of reagent on TG activity (in words) of `O=C(O)CN(CCOCCOCCN(CC(=O)O)CC(=O)O)CC(=O)O` ?
Response: not inhibited

Query: Quick one: Influence of reagent on TG activity (in words) of `NCCSSCCN` ?
Response: inhibited

Query: Quick one: Influence of reagent on TG activity (in words) of N.N.O=S(=O)(O)O [(NH4)2 SO4, ammonium sulfate] ?
Response: inhibited

Query: Quick one: Influence of reagent on TG activity (in words) of O=S(=O)([O-])[O-].[Na+].[Na+] [Na2 SO4, sodium sulfate] ?
Response: not inhibited

* * *

# Target or test system: Bacillus subtilis AJ12866-derived TG (TG-2) (Bacillus subtilis, UniProt P40746)
# Sequence (P40746 whole entry): as the sequence (P40746 whole entry D22N) above, with N22D counted along it
# Assay notes: Influence of reagents on TG activity (TG active fraction after gel permeation, TG-2)
# Experimental setup: agent concentration 10 mM; control = 100
Reported values of Remaining Activity (relative value) for individual entries
Form rule: numeric answer, no unit written next to it.

>  <Molecule>
OCCS

>  <Remaining Activity (relative value)>
122

$$$$
>  <Molecule>
O=S(=O)([O-])[O-].[Na+].[Na+] [Na2 SO4, sodium sulfate]

>  <Remaining Activity (relative value)>
85

$$$$

Query: Quick one: Remaining Activity (relative value) of N.N.O=S(=O)(O)O [(NH4)2 SO4, ammonium sulfate] ?
Response: 3

Query: Quick one: Remaining Activity (relative value) of `O=C(O)CN(CCOCCOCCN(CC(=O)O)CC(=O)O)CC(=O)O` ?
Response: 94

* * *

# Target or test system: UniProt:P40746
# Assay notes: Influence of reagents on TG activity (TG active fraction after gel permeation, TG-2)
# Experimental setup: TG-2; Ca^2+ at 5 mM or more
Measured property: Influence of reagent on TG activity (in words)

Below, each entry is followed by its recorded Influence of reagent on TG activity (in words) result.
>  <Molecule>
[Ca+2].[Cl-].[Cl-] [CaCl2, calcium chloride]

>  <Result>
not inhibited

$$$$
>  <Molecule>
NCCSSCCN [cystamine]

>  <Result>
greatly inhibited

$$$$
>  <Molecule>
N.N.O=S(=O)(O)O [(NH4)2 SO4, ammonium sulfate]

>  <Result>
greatly inhibited

$$$$
>  <Molecule>
O[C@H](CS)[C@H](O)CS (racemic) [DTT, dithiothreitol]

>  <Result>
not inhibited

$$$$

Consider now this further molecule.
Query: Quick one: Influence of reagent on TG activity (in words) of CCN1C(=O)C=CC1=O [NEM, N-ethylmaleimide] ?
Response: greatly inhibited

* * *

# Target or test system: Bacillus subtilis AJ1307-derived TG (TG-1) (Bacillus subtilis, UniProt P40746, D22N)
# Construct: The thus-obtained cells were used as the starting material, from which TG was purified in the manner mentioned below; endogenous in cells; host or cells: Bacillus subtilis AJ1307 (enzyme solubilized from spores and purified to a single band)
# Format: biochemical
# Experimental setup: agent concentration 10 (unit not given); control = 100; pH 7.5, 37° C.
# Description: The TG activity of the enzyme liquids obtained below was determined according to an enzymatic activity measuring method, which is as follows. […] The thus-counted value was referred to as the TG activity of the enzyme liquid. […] As the enzyme source, the previously-prepared pure TG fraction was used at a concentration of 2 μg/ml. The protein concentration was measured, using a protein assay kit (produced by Bio Rad Co.). […] The TG activity was measured in the following manner. […]
Measured property: Remaining Activity (relative value)
Form rule: numeric answer, no unit written next to it.

Below, each entry is followed by its recorded Remaining Activity (relative value) result.
>  <Compound>
OCCS [2-ME, 2-mercaptoethanol]

>  <Target or test system>
Bacillus subtilis AJ1307-derived TG (TG-1) (Bacillus subtilis, UniProt P40746, D22N)

>  <Result>
111

$$$$
>  <Compound>
O=C(O)CN(CCOCCOCCN(CC(=O)O)CC(=O)O)CC(=O)O [EGTA]

>  <Target or test system>
Bacillus subtilis AJ1307-derived TG (TG-1) (Bacillus subtilis, UniProt P40746, D22N)

>  <Result>
98

$$$$
>  <Compound>
N.N.O=S(=O)(O)O [(NH4)2 SO4, ammonium sulfate]

>  <Target or test system>
Bacillus subtilis AJ1307-derived TG (TG-1) (Bacillus subtilis, UniProt P40746, D22N)

>  <Result>
1

$$$$
>  <Compound>
O=C(O)CN(CCN(CC(=O)O)CC(=O)O)CC(=O)O [EDTA, ethylenediamine-tetraacetic acid]

>  <Target or test system>
Bacillus subtilis AJ1307-derived TG (TG-1) (Bacillus subtilis, UniProt P40746, D22N)

>  <Result>
107

$$$$
>  <Compound>
O[C@H](CS)[C@H](O)CS (racemic) [DTT, dithiothreitol]

>  <Target or test system>
Bacillus subtilis AJ1307-derived TG (TG-1) (Bacillus subtilis, UniProt P40746, D22N)

>  <Result>
119

$$$$

Consider now this further compound.
Query: Give Remaining Activity (relative value) (Bacillus subtilis AJ1307-derived TG (TG-1) (Bacillus subtilis, UniProt P40746, D22N)) of the following compound: O=S(=O)([O-])[O-].[Na+].[Na+] [Na2 SO4, sodium sulfate]
Response: 87
